Target: Claudin 18.2 (CLDN18.2), expressed on CHOS-CLDN 18.2 / HEK293-CLDN 18.2 / HCC827-CLDN 18.2 cells (human, UniProt P56856-2 1-261)
Assay: cell-based or functional assay
ENDPOINT: Killing percentage, ADCC (PBMC, HEK293-CLDN18.2 cells), 8 µg/ml
Record the result as number plus unit.

BINDER	RESULT
QP024025 (antibody, human IgG1, V domains shown, also called IMAB362; 175D10(IMAB362)) VH: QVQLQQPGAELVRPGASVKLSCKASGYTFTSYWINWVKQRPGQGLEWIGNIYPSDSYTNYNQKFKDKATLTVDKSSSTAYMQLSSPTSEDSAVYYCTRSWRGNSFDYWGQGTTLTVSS VL: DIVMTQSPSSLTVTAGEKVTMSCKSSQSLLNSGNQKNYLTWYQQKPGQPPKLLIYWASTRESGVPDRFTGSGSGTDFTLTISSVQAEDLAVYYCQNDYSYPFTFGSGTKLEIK	26.2%

## Task So what's the measured Killing percentage, ADCC (PBMC, HEK293-CLDN18.2 cells), 8 µg/ml for this one? QP14451440 (antibody, human IgG1, kappa, V domains shown, Humanized from QP192193; also called QP14401445) VH: QVQLVQSGAEVKKPGASVKVSCKASGYAFSSYWMNWVRQAPGQGLEWIGQIYPGNGDTTYNGKFKGRVTMTADKSTSTVYMELSSLRSEDTAVYFCARFVKGNAMDYWGQGTLVTVSS VL: DIVMTQSPDSLAVSLGERATISCKSSQSLLNSGNQKNYLTWYQQKPGQPPKLLIYWASTRESGVPDRFSGSGSGTDFTLTISSLQAEDVAVYYCQNAYSYPFTFGQGTKLEIKR
## Result 42.7%

## Task So what's the measured Killing percentage, ADCC (PBMC, HEK293-CLDN18.2 cells), 8 µg/ml for this one? QP14631461 (antibody, human IgG1, kappa, V domains shown, also called QP14611463) VH: QVQLVQSGAEVKKPGASVKVSCKASGYTFTSYIMHWVRQAPGQGLEWMGYINPYNDGTKYNEKFKGRVTMTRDTSTSTVYMELSSLRSEDTAVYYCARLGFTTRNAMDYWGQGTLVTVSS VL: DIVMTQSPDSLAVSLGERATINCKSSQSLLNSGNQKNYLAWYQQKPGQPPKLLIYGASTRESGVPDRFTGSGSGTDFTLTISSLQAEDVAVYYCQNDHSYPFTFGQGTKLEIKR
## Result 46.3%

## Task So what's the measured Killing percentage, ADCC (PBMC, HEK293-CLDN18.2 cells), 8 µg/ml for this one? QP14371433 (antibody, human IgG1, kappa, V domains shown, Humanized from QP190191; also called QP14331437) VH: EVQLVESGGGLVKPGGSLRLSCAASGFTFSNYAMSWVRQAPGKGLEWVASIISGGRTYYLDSEKGRFTISRDNAKNSLYLQMNSLRAEDTAVYYCTRIYYGNSFDYWGQGTLVTVSS VL: DIVMTQSPDSLAVSLGERATINCKSSQSLLNSGNQKNYLTWYQQKPGQPPKLLIYWASTRESGVPDRFSGSGSGTDFTLTISSLQAEDVAVYYCQNDYSYPFTFGQGTKLEIKR
## Result 53.8%
